Target or system: von Hippel-Lindau disease tumor suppressor/Histone-lysine N-methyltransferase, H3 lysine-79 specific (Homo sapiens, UniProt Q8TEK3+P40337)
Sequence (P40337 whole entry, looked up): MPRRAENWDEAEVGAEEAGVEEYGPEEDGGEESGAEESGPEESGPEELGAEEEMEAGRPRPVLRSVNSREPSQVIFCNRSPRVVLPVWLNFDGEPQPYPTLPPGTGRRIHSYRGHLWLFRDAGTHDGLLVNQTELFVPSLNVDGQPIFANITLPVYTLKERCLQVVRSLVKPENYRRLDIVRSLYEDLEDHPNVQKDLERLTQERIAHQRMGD
Sequence (Q8TEK3 whole entry, looked up): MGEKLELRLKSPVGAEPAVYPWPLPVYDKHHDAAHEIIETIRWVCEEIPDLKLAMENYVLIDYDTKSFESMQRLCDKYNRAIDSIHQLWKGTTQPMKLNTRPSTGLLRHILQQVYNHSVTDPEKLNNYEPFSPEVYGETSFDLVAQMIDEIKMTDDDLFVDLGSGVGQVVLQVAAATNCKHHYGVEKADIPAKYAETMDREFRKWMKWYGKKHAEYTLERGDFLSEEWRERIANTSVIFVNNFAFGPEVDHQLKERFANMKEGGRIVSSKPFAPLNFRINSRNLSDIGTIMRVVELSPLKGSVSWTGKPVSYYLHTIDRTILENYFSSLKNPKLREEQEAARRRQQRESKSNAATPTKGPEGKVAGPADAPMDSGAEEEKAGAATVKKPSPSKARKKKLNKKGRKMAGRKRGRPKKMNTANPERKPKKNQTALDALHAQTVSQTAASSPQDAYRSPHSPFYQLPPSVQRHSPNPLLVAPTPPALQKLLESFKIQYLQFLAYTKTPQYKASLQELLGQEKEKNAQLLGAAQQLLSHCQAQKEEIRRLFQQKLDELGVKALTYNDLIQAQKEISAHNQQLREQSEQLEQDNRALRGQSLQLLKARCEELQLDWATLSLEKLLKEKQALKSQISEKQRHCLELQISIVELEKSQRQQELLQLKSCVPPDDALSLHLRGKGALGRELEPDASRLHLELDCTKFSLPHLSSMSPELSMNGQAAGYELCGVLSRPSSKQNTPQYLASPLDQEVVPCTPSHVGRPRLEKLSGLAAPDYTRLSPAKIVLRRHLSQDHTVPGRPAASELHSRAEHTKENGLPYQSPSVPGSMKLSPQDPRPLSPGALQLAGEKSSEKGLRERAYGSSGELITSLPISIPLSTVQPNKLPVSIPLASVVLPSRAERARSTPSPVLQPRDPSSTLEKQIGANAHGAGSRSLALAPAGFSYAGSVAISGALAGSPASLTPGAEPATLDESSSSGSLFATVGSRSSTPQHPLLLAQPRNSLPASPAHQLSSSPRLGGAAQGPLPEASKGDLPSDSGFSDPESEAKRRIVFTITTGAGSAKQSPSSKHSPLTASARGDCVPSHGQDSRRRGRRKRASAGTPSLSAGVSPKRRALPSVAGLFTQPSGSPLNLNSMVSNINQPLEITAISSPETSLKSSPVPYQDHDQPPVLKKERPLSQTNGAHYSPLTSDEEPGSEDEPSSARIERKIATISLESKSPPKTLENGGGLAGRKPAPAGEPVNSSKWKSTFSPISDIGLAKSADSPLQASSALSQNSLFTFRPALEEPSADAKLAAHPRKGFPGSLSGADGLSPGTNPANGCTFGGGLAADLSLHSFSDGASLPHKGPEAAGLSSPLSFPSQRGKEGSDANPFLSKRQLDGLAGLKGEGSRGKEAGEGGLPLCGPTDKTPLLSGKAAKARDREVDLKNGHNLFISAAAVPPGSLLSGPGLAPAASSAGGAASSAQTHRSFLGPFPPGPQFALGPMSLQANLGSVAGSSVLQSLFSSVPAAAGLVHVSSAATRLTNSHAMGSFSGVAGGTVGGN
Method: PROTAC activity at VHL/DOTIL in mixed-lineage leukemia rearranged (MLL-r) human THP-1 cells assessed as induction of DOT1L degradation by measuring fold change in DOTIL protein level at 0.3 uM incubated for 24 hrs by western blot analysis relative to control
Type: cell-based
Examples of compounds with documented fold change (FC) follow.
Attribute measured: fold change (FC)

[
  {
    "Record smiles": "Cc1ncsc1-c1ccc([C@H](CC(=O)NCCCCCCNC(=O)COc2nc(N)nc(Nc3cc(S(N)(=O)=O)ccc3N[C@@H](c3cccc4c3OC(F)(F)O4)c3ncccc3Cl)n2)NC(=O)[C@@H]2C[C@H](O)CN2C(=O)[C@@H](NC(=O)C2(F)CC2)C(C)(C)C)cc1",
    "Recorded measurement": 0.99
  },
  {
    "Record smiles": "Cc1ncsc1-c1ccc(CNC(=O)[C@@H]2C[C@@H](O)CN2C(=O)[C@@H](NC(=O)CCNC(=O)COc2nc(N)nc(Nc3cc(S(N)(=O)=O)ccc3N[C@@H](c3cccc4c3OC(F)(F)O4)c3ncccc3Cl)n2)C(C)(C)C)cc1",
    "Recorded measurement": 0.82
  },
  {
    "Record smiles": "Cc1ncsc1-c1ccc([C@H](CC(=O)NCCNC(=O)COc2nc(N)nc(Nc3cc(S(N)(=O)=O)ccc3N[C@@H](c3cccc4c3OC(F)(F)O4)c3ncccc3Cl)n2)NC(=O)[C@@H]2C[C@@H](O)CN2C(=O)[C@@H](NC(=O)C2(F)CC2)C(C)(C)C)cc1",
    "Recorded measurement": 0.83
  }
]
